test system: Aβ42 produced and secreted into the medium of human neuroblastoma SKNBE2 cells; test: Cellular αlisa assay in SKNBE2 cells, Aβ42; assay type: cell-based; conditions: Homo sapiens, SKNBE2, 18 h, SKNBE2 cells expressing hAPP695, incubated for 18 hours; read-out: Cellular αlisa assay in SKNBE2 cells Aβ42 pIC50 (converted)
Quantity measured: log10(IC50) (log10 of the value in µM)

> print(dat)
                                    compound  quantity.measured  quantitative.readout
 1  CC1(c2cccc(NC(=O)c3ccc(Cl)cn3)c2)Cn2ccnc2C(N)=N1 (racemic)        log10(IC50)                 -1.15
 2  C[C@@]1(c2cc(NC(=O)c3ccc(F)cn3)ccc2F)Cn2cc(Br)nc2C(N)=N1        log10(IC50)                 -1.49
 3  CC1(c2cc(-c3cncnc3)c(F)cc2F)Cn2ccnc2C(N)=N1 (single isomer, unassigned)        log10(IC50)                  0.37
 4  Cc1nc(C(=O)Nc2ccc(F)c([C@]3(C)Cn4ccnc4C(N)=N3)c2)c(C(F)(F)F)o1        log10(IC50)                 -1.02
 5  Cc1nc(C(=O)Nc2ccc(F)c([C@]3(C)Cn4cc(C(F)(F)F)nc4C(N)=N3)c2)c(C)o1        log10(IC50)                 -0.92
 6  COc1cnc(C(=O)Nc2ccc(F)c([C@]3(C)Cn4cc(Br)nc4C(N)=N3)c2)cn1        log10(IC50)                 -1.50
 7  COc1cnc(C(=O)Nc2ccc(F)c([C@]3(C)Cn4cc(C(F)(F)F)nc4C(N)=N3)c2)cn1        log10(IC50)                 -1.07
 8  CCOc1cnc(C(=O)Nc2ccc(F)c([C@]3(C)Cn4ccnc4C(N)=N3)c2)cn1        log10(IC50)                 -1.60
 9  C[C@@]1(c2cc(NC(=O)c3ccsn3)ccc2F)Cn2cc(C(F)(F)F)nc2C(N)=N1        log10(IC50)                 -1.06
10  Cc1nc(C(=O)Nc2ccc(F)c([C@]3(C)Cn4cc(C(F)(F)F)nc4C(N)=N3)c2)c(C(F)(F)F)o1        log10(IC50)                 -0.80
11  COc1ccc(C(=O)Nc2ccc(F)c([C@]3(C)Cn4ccnc4C(N)=N3)c2)nc1        log10(IC50)                 -1.76
12  C[C@@]1(c2cc(NC(=O)c3ccc(F)cn3)ccc2F)Cn2c(Cl)cnc2C(N)=N1        log10(IC50)                 -1.70
13  Cc1nc(C(=O)Nc2ccc(F)c([C@]3(C)Cn4ccnc4C(N)=N3)c2)c(C)o1        log10(IC50)                 -1.05
14  C[C@@]1(c2cccc(-c3cncnc3)c2)Cn2ccnc2C(N)=N1        log10(IC50)                  0.89
15  C[C@@]1(c2cc(NC(=O)c3ncc(Cl)cc3Cl)ccc2F)Cn2ccnc2C(N)=N1        log10(IC50)                 -1.96
16  Cc1nc(C(=O)Nc2ccc(F)c([C@]3(C)Cn4ccnc4C(N)=N3)c2)co1        log10(IC50)                 -1.42

---

Catalogue of compounds with associated IC50
target: recombinant BACE1 protein (Homo sapiens); construct: recombinant BACE1 protein in a final concentration of 1 μg/ml; assay: Biochemical FRET based assay; conditions: recombinant BACE1 1 μg/ml, 10 μm substrate, 120 minutes, room temperature, pH 5.0; read-out: Biochemical FRET based assay pIC50 (converted)
Quantity measured: IC50 (µM)

> print(dat)
                                    compound  quantity.measured  quantitative.readout
 1  C[C@@]1(c2cc(NC(=O)c3ccc(F)cn3)ccc2F)Cn2cc(C#N)nc2C(N)=N1               IC50                0.0832
 2  COc1cnc(C(=O)Nc2ccc(F)c([C@]3(C)Cn4cc(Br)nc4C(N)=N3)c2)cn1               IC50                 0.112
 3  Cc1nc(C(=O)Nc2ccc(F)c([C@]3(C)Cn4ccnc4C(N)=N3)c2)c(C(F)(F)F)o1               IC50                  0.38
 4  C[C@@]1(c2cc(NC(=O)c3ccsn3)ccc2F)Cn2cc(C(F)(F)F)nc2C(N)=N1               IC50                 0.229
 5  C[C@@]1(c2cc(NC(=O)c3ncc(Cl)cc3F)ccc2F)Cn2ccnc2C(N)=N1               IC50                0.0759
 6  Cc1nc(C(=O)Nc2ccc(F)c([C@]3(C)Cn4cc(C(F)(F)F)nc4C(N)=N3)c2)c(C)o1               IC50                 0.178
 7  CC1(c2cc(-c3cncnc3)ccc2F)Cn2ccnc2C(N)=N1 (single isomer, unassigned)               IC50                    20
 8  CC1(c2cccc(-c3cc(Cl)cc(Cl)c3)c2)Cn2ccnc2C(N)=N1 (racemic)               IC50                  26.9
 9  CC1(c2cc(NC(=O)c3ccc(F)cn3)ccc2F)Cn2ccnc2C(N)=N1 (single isomer, unassigned)               IC50                 0.214
10  CC1(c2cccc(NC(=O)c3ccc(Cl)cn3)c2)Cn2ccnc2C(N)=N1 (racemic)               IC50                 0.331

---

Target: recombinant BACE1 protein (Homo sapiens, UniProt P56817)
Construct: recombinant BACE1 protein in a final concentration of 1 μg/ml
Sequence (P56817 46-501): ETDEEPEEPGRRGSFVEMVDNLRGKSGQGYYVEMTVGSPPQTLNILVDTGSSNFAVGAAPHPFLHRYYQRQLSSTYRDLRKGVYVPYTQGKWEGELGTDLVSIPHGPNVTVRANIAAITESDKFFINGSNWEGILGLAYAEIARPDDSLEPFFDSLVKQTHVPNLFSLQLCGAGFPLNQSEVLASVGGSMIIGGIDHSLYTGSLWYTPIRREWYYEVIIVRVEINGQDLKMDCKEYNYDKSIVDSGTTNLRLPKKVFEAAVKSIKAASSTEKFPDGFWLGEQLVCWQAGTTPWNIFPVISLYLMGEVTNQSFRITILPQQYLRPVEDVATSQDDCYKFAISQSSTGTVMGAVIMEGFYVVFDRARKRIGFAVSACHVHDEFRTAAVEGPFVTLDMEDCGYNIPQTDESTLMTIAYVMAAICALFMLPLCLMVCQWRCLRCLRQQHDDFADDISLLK
Test: Biochemical FRET based assay
Conditions: recombinant BACE1 1 μg/ml, 10 μm substrate, 120 minutes, room temperature, pH 5.0; read-out: Biochemical FRET based assay pIC50 (converted)
From the text: This assay is a Fluorescence Resonance Energy Transfer Assay (FRET) based assay. […] Upon cleavage by BACE1, the fluorophore Mca is separated from the quenching group Dnp, restoring the full fluorescence yield of the donor. The increase in fluorescence is linearly related to the rate of proteolysis (Koike H et al. J. Biochem. 1999, 126, 235-242). […]
Quantity measured: IC50 (nM)

> print(dat)
                                   compound  lt.gt.eq  quantitative.readout
1  NC1=NC(c2cc(NC(=O)c3ccc(F)cn3)ccc2F)(C(F)F)Cn2ccnc21 (stereo not shown) [Compound 29]         >                 30200
2  NC1=NC(c2cc(NC(=O)c3ccc(F)cn3)ccc2F)(C(F)F)Cn2ccnc21 (stereo not shown) [Compound 27]         =                   589
3  COc1cnc(C(=O)Nc2ccc(F)c([C@]3(C)Cn4cc(C(F)(F)F)nc4C(N)=N3)c2)cn1         =                   234
4  COc1cnc(C(=O)Nc2ccc(F)c([C@]3(C)Cn4c(Cl)cnc4C(N)=N3)c2)cn1         =                  66.1
